System: Carbonic anhydrase 12 (Homo sapiens) | Read-out: pKi | Origin: multiple publications
Sequence (O43570 whole entry): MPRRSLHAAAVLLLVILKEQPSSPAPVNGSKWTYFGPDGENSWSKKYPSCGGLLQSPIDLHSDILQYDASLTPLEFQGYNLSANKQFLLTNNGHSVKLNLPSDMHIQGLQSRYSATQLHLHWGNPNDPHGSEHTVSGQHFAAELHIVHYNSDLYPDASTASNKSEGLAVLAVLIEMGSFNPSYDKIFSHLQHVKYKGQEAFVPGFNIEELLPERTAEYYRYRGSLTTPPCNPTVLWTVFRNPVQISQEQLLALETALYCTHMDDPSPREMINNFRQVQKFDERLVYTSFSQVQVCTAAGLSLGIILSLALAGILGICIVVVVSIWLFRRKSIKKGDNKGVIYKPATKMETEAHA
Quick note: pKi values are minus log10 of concentrations in mol/L.

Answered cases to consult:
[
  {
    "molecule": "NS(=O)(=O)c1ccc(C(=O)Nc2ccc([Se][C@@H]3O[C@H](CO)[C@@H](O)[C@H](O)[C@H]3O)cc2)cc1",
    "target_or_test_system": "Carbonic anhydrase 12 (Homo sapiens)",
    "observed_result": 8.14
  },
  {
    "molecule": "CCOC1Oc2ccccc2C(=O)/C1=C/Nc1ccc(S(=O)(=O)Nc2ccccn2)cc1 (stereo not given)",
    "target_or_test_system": "Carbonic anhydrase 12 (Homo sapiens)",
    "observed_result": 7.21
  },
  {
    "molecule": "NS(=O)(=O)c1ccc(-c2ccc(C(=O)O)cc2)cc1",
    "target_or_test_system": "Carbonic anhydrase 12 (Homo sapiens)",
    "observed_result": 7.28
  },
  {
    "molecule": "CCCCCCCCN(CCCCCCCC)CCC(=O)N(CCc1ccc(S(N)(=O)=O)cc1)Cc1ccccc1",
    "target_or_test_system": "Carbonic anhydrase 12 (Homo sapiens)",
    "observed_result": 6.55
  },
  {
    "molecule": "Cc1nn(-c2ccc(C(=O)O)cc2)c2c1c(=O)oc1ccccc12",
    "target_or_test_system": "Carbonic anhydrase 12 (Homo sapiens)",
    "observed_result": 7.61
  }
]

Now consider the entry below.
Output pKi of COc1cc2ccc(=O)oc2c(O[C@@H]2O[C@H](CO)[C@@H](O)[C@H](O)[C@H]2O)c1O
5.13
